Origin of measurements: ChEMBL document CHEMBL1201862

What GI50 was measured for each of the following?
system: HOP-62; test: NCI tumour cell line growth inhibition, 48 h
Activity calls are given as the source filed them. Rule as the data show it: active = GI50 up to about 1.1 µM and inactive = higher.

Enquiry: Output reported GI50 of the compound O=S1(=O)c2ccccc2-c2nccc3ccnc1c23 on HOP-62.
Return: 40.7 µM (inactive)

Enquiry: Output reported GI50 of the compound CC(=O)OC/C=C(/CCl)CCC(Br)C(C)(C)Br.CC(=O)OC/C=C(\CCl)CCC(Br)C(C)(C)Br (stereo not given) on HOP-62.
Return: > 10 µM (inactive)

Enquiry: Output reported GI50 of the compound COc1cc2c(cc1OC)CN1CCCc3cc(OC)c(OC)cc3C1C2 (stereo not given) on HOP-62.
Return: 25 µM (inactive)

Enquiry: Output reported GI50 of the compound CCCCC(=O)N/S(=N/C(=O)c1ccccc1)C(Cl)(Cl)Cl (stereo not given) on HOP-62.
Return: > 100 µM (inactive)

Enquiry: Output reported GI50 of the compound C=C(C)C12CC3CC(/C(=N/O)C(C1)/C3=N\O)[C@@]2(C)O (stereo not given in full) on HOP-62.
Return: > 100 µM (inactive)

Enquiry: Output reported GI50 of the compound COc1cccc(/C=N\NC(=O)C(C)SC(C)C(=O)N/N=C/c2cccc(OC)c2)c1 (stereo not given) on HOP-62.
Return: 16 µM (inactive)

Enquiry: Output reported GI50 of the compound COc1cc(/C=C/C(=O)CC(=O)/C=C/c2cc(OC)c(O)c(OC)c2)cc(OC)c1O on HOP-62.
Return: 11.7 µM (inactive)

Enquiry: Output reported GI50 of the compound CCCCC(=O)OC[n+]1cccc(-c2c(COC(=O)NC(C)C)c(COC(=O)NC(C)C)c3n2CCC3)c1 on HOP-62.
Return: 56.1 µM (inactive)

Enquiry: Output reported GI50 of the compound CCOC(=O)C1=C(C)N(Cc2ccccc2)C2(O)C=CC(=O)C3C(=O)N(c4ccccc4)C(=O)C132 (stereo not given) on HOP-62.
Return: 2.35 µM (inactive)

Enquiry: Output reported GI50 of the compound NC(=O)C12CC3CC(CC(F)(C3)C1)C2 on HOP-62.
Return: > 100 µM (inactive)
